The values you see were collected from ChEMBL document CHEMBL1128396.

- System: Staphylococcus aureus
- test: Antibacterial activity was determined against Staphylococcus aureus FDA 209P (Gram-positive)
- Type: functional
metric: MIC (µg/mL)
Expressed in µg/mL, but write only the number.

Ask | Look up MIC: Nc1nc(/C(=N/OC2CCCC2)C(=O)N[C@@H]2C(=O)N3C(C(=O)O)=C(CSc4cc[n+](CC(=O)c5ccccc5)cc4)OC[C@H]23)cs1.O=S(=O)([O-])O
Reply | 0.2

Ask | Look up MIC: CC(=O)C[n+]1ccc(SCC2=C(C(=O)O)N3C(=O)[C@@H](NC(=O)/C(=N\OC4CCCC4)c4csc(N)n4)[C@H]3CO2)cc1.O=S(=O)([O-])O
Reply | 0.2

Ask | Look up MIC: Nc1nc(/C(=N/OC2CCCC2)C(=O)N[C@@H]2C(=O)N3C(C(=O)O)=C(CSc4cc[n+](CC(=O)N5CCOCC5)cc4)OC[C@H]23)cs1.O=S(=O)([O-])O
Reply | 0.2

Ask | Look up MIC: NC(=O)C[n+]1ccc(SCC2=C(C(=O)O)N3C(=O)[C@@H](NC(=O)/C(=N\OC4CCCC4)c4csc(N)n4)[C@H]3CO2)cc1.O=S(=O)([O-])O
Reply | 0.1

Ask | Look up MIC: CN(C)C(=O)C[n+]1ccc(SCC2=C(C(=O)O)N3C(=O)[C@@H](NC(=O)/C(=N\OC4CCCC4)c4csc(N)n4)[C@H]3CO2)cc1.O=S(=O)([O-])O
Reply | 0.2

Ask | Look up MIC: CN[C@H](CC(C)C)C(=O)N[C@H]1C(=O)N[C@@H](CC(N)=O)C(=O)N[C@H]2C(=O)N[C@H]3C(=O)N[C@H](C(=O)N[C@H](C(=O)O)c4cc(O)cc(O)c4-c4cc3ccc4O)[C@H](O)c3ccc(c(Cl)c3)Oc3cc2cc(c3O[C@@H]2O[C@H](CO)[C@@H](O)[C@H](O)[C@H]2O[C@H]2C[C@](C)(N)[C@H](O)[C@H](C)O2)Oc2ccc(cc2Cl)[C@H]1O [VANCOMYCIN]
Reply | 0.78

###

Assign MIC to each entry below.
- Tested on: Staphylococcus aureus
- test: Antibacterial activity was determined against Staphylococcus aureus FDA 209P (Gram-positive)
- Assay type: functional
Expressed in µg/mL, but write only the number.

Ask | Look up MIC: N#CC[n+]1ccc(SCC2=C(C(=O)O)N3C(=O)[C@@H](NC(=O)/C(=N\OC4CCCC4)c4csc(N)n4)[C@H]3CO2)cc1.O=S(=O)([O-])O
Reply | 0.2

Ask | Look up MIC: C[n+]1ccc(SCC2=C(C(=O)O)N3C(=O)[C@@H](NC(=O)/C(=N\OC4CCCC4)c4csc(N)n4)[C@H]3CO2)cc1.O=S(=O)([O-])O
Reply | 0.05

Ask | Look up MIC: C#CC[n+]1ccc(SCC2=C(C(=O)O)N3C(=O)[C@@H](NC(=O)/C(=N\OC4CCCC4)c4csc(N)n4)[C@H]3CO2)cc1.O=S(=O)([O-])O
Reply | 0.2

Ask | Look up MIC: CC(C)(C)NC(=O)C[n+]1ccc(SCC2=C(C(=O)O)N3C(=O)[C@@H](NC(=O)/C(=N\OC4CCCC4)c4csc(N)n4)[C@H]3CO2)cc1.O=S(=O)([O-])O
Reply | 0.2

Ask | Look up MIC: CNC(=O)C[n+]1ccc(SCC2=C(C(=O)O)N3C(=O)[C@@H](NC(=O)/C(=N\OC4CCCC4)c4csc(N)n4)[C@H]3CO2)cc1.O=S(=O)([O-])O
Reply | 0.2

Ask | Look up MIC: CCC(=O)C[n+]1ccc(SCC2=C(C(=O)O)N3C(=O)[C@@H](NC(=O)/C(=N\OC4CCCC4)c4csc(N)n4)[C@H]3CO2)cc1.O=S(=O)([O-])O
Reply | 0.2

Ask | Look up MIC: CO/N=C(\C(=O)N[C@@H]1C(=O)N2C(C(=O)[O-])=C(C[n+]3cccc4c3CCC4)CS[C@H]12)c1csc(N)n1 [CEFPIROME]
Reply | 0.39

Ask | Look up MIC: Nc1nc(/C(=N/OC2CCCC2)C(=O)N[C@@H]2C(=O)N3C(C(=O)O)=C(CSc4cc[n+](CC(=O)N5CCC(O)CC5)cc4)OC[C@H]23)cs1.O=S(=O)([O-])O
Reply | 0.2

Ask | Look up MIC: CC(C)=CC[n+]1ccc(SCC2=C(C(=O)O)N3C(=O)[C@@H](NC(=O)/C(=N\OC4CCCC4)c4csc(N)n4)[C@H]3CO2)cc1.O=S(=O)([O-])O
Reply | 0.2

Ask | Look up MIC: CC(C)(C)C(=O)C[n+]1ccc(SCC2=C(C(=O)O)N3C(=O)[C@@H](NC(=O)/C(=N\OC4CCCC4)c4csc(N)n4)[C@H]3CO2)cc1.O=S(=O)([O-])O
Reply | 0.2

Ask | Look up MIC: CO[C@@]1(NC(=O)CSC(F)F)C(=O)N2C(C(=O)O)=C(CSc3nnnn3CCO)CO[C@@H]21 [FLOMOXEF]
Reply | 0.39

Ask | Look up MIC: C=CC[n+]1ccc(SCC2=C(C(=O)O)N3C(=O)[C@@H](NC(=O)/C(=N\OC4CCCC4)c4csc(N)n4)[C@H]3CO2)cc1.O=S(=O)([O-])O
Reply | 0.1
